assay.system: UniProt P0DTD1
experiment.summary: biochemical
Assay type: biochemical
measurement.conditions: SARS-CoV-2 M^pro IC50′ nM, General summary table
measurement.name: IC50 (nM)
# number only, unit nM dropped from output

Give IC50 for the following compound: O=C(NC1CCC(F)(F)CC1)C(c1cncnc1)N(C(=O)CCl)c1ccc(-c2cncs2)cc1 (single isomer, unassigned)
50

====

# pIC50 listing for each entry below
assay.system: CYP 1A2 (Homo sapiens)
Sequence (P05177 1-516): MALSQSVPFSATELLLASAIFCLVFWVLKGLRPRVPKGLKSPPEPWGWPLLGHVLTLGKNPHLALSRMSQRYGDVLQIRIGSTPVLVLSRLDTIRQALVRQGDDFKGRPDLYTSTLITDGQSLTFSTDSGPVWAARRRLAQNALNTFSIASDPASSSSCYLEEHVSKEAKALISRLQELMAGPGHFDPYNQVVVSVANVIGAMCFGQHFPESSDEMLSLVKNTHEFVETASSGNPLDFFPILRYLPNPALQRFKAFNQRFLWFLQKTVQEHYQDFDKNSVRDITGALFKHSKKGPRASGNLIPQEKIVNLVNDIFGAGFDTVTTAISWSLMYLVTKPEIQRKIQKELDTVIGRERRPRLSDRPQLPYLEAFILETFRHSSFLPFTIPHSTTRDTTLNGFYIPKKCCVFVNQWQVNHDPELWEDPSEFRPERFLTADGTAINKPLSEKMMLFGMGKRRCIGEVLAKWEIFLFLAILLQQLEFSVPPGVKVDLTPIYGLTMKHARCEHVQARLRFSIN
Notebook: values listed as pIC50 are -log10 of the concentration (mol/L).

molecule	pIC50
CC(C(=O)NC1CCC(F)(F)CC1)(c1cnccn1)N(C(=O)CCl)c1ccc(-c2ccns2)cc1 (stereo not drawn) [INSCoV-601N]	4.60

Give pIC50 for O=C(NC1CCC(F)(F)CC1)[C@@H](c1cncnc1)N(C(=O)[C@@H](F)Cl)c1ccc(-c2cncs2)cc1 (single isomer, unassigned)
4.61
